Recorded values, source patent US20250368734A1.

Items are presented alongside their recorded % Positive.
# measured.on: T1, human GPRC5D (human, UniProt Q9NZD1 1-345)
# T1 construct: whole, on cells; also called hGPRC5D; G-protein coupled receptor family C group 5 member D
# run.description: FACS, OPM-2 cells
Form entry: value (%) — number only.

binder	experimental.endpoint	units	reported
82A1C10 (antibody, V domains shown, Mouse monoclonal antibody from hybridoma subclone) VH: QVQLKESGPGLVAPSQSLSITCTVSGFSLTNYAVTWVRQPPGKGLEWLGVIWGDGSTYYHSALVSRLSITKDNSRTQVLLKLNSLQTDDTARYYCAKGGYSPFAYWGQGTLVTVSA VL: DVVMTQTPLSLPVSLGDQASISCRSSQSLVHSNGNTYLHWYLQKPGQSPKLLIFKVSNRFSGVPDRFSGSGSGTDFTLKISRVEAEDLGVYFCSQNTHVPFTFGSGTKLEIK	% Positive	%	94.8

We next turn to a different binder, shown below.
Lookup: GET /values?readout=% Positive&item= 89F11E3 (antibody, V domains shown, Mouse monoclonal antibody from hybridoma subclone) VH: QVQLQQSGAELARPGASVKMSCKASGYTFTSSTIHWVKQRPGQGLAWIGYIVPSTGYTNYNQKFKDKATLTADKSSSTAYMQLTSLTSEDSAVYYCARSDGYPFGYSMAYWGQGTSVTVSS VL: DIQMNQSPSSLSASLGDTITITCHASQNINVWLSWYHQKPGNIPKLLIYKASNLHTGVPSRFSGSGSGTGFTLTISRLQPEDIATYYCQQGQSYPFTFGSGTKLEIK
Found: 98.1
